The following compounds are shown together with reported TGI values.
system: M19-MEL melanoma; assay: NCI tumour cell line growth inhibition, 48 h

Solved entries (count: 3):
compound	measurement
CN(C)CCCNC(=O)c1cccc2nc3ccccc3nc12	16.4 µM
O=C(Cc1nc2ccc(C(=O)c3ccccc3)cc2[nH]c1=O)C(=O)Nc1ccc(C(F)(F)F)cc1[N+](=O)[O-]	> 100 µM
Cc1ccc(SC2C(C)(C)N(C(C)C)P2(=O)N(C(C)C)C(C)C)cc1 (configuration not stated)	> 86.6 µM

Moving on to another compound below.
Req: Indicate its recorded TGI; the compound in question is COc1ccc(/C=c2\sc3nnc(CCC(=O)Nc4cccc(C(F)(F)F)c4)n3c2=O)cc1
Resp: > 100 µM
